- System Tested: T1, QP098 (cyno SIRPα (I7G9Z7) ECD(E31-R369)-flag-his) (cynomolgus)
- T1 construct: the construct carries flag and his tags; also called cynoSIRPα (ECD); cynomolgus SIRPα
- T1 chain: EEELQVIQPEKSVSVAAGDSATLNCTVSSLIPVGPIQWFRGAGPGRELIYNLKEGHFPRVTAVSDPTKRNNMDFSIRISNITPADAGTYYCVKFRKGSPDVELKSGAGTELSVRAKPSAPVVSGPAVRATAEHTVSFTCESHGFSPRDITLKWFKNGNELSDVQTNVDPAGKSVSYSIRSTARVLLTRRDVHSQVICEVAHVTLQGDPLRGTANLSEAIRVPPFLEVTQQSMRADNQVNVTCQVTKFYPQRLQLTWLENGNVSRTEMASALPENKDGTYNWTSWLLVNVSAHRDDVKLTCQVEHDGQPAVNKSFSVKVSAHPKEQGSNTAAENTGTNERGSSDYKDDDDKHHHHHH
- Assay Text: binding ELISA, antigen coated
Parameter Measured: EC50 (ng/mL)
# value in ng/mL; strip the unit string

>  <Binder>
QP2561771 (antibody, human IgG4, V domains shown, Human IgG4 heavy constant region and kappa CL) VH: QVQLVQSGAEVKKPGASVKVSCKASGYTFTNYWINWVRQAPGQGLEWIAMIDPSDSETHYNQIFKDRATLTTDTSTSTAYMELRSLRSDDTAVYYCAMDYGSLYAMDYWGRGTLVTVSS VL: DIVLTQSPDSLAVSLGERATINCRASKSVSSSGYNWIFWYQQKPGQPPKLLIYLASNRDSGVPDRFSGSGSGTDFTLTISSLQAEDVAVYYCQESRELPTFGQGTKLEIK

>  <Value Reported>
1.08

$$$$

Field: next binder
Annotate the binder QP256253 (antibody, human IgG4, V domains shown, also called humanized antibody QP256253; QP163164 humanized clone) VH: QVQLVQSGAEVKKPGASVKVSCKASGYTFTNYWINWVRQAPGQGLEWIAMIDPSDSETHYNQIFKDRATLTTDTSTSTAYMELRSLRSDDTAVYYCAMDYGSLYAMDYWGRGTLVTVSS VL: DIVLTQSPDSLAVSLGERATINCRASKSVSSSGYNYIFWYQQKPGQPPKLLIYLASNLDSGVPDRFSGSGSGTDFTLTISSLQAEDVAVYYCQHSRELPTFGQGTKLEIK with its measured EC50.
1.26
